Tested on: Amaranthus retroflexus (AMARE)
Experiment: A. Herbicidal pre-emergence efficacy, AMARE
Assay type: in vivo
Conditions: 80 g/ha
Property: Pre-emergence efficacy against AMARE in % (%)

Molecule: O=S(=O)(CC1CC(F)(F)C1)Oc1c(F)cccc1Oc1ncc(Cl)cn1 [Example I-53]
Observed Value: 100
--
Molecule: O=S(=O)(CCCC(F)(F)F)Oc1c(F)cccc1Oc1ncc(Cl)cn1 [Example I-49]
Observed Value: 90
--
Molecule: O=S(=O)(CCl)Oc1ccccc1Oc1ncc(Cl)cn1 [Example I-9]
Observed Value: 100
--
Molecule: O=S(=O)(CCC1CC1(Cl)Cl)Oc1c(F)cccc1Oc1ncc(Cl)cn1 (centres unmarked) [Example I-51]
Observed Value: 90
--
Molecule: O=S(=O)(CCCC(F)(F)F)Oc1c(Br)cccc1Oc1ncc(Cl)cn1 [Example I-30]
Observed Value: 100
